System: TTK
RECORDED_CONDITIONS: concentration: 1 μM,replicates: in singlicate; n = 1;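 note: KINOMEscan kinase panel screen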
PROPERTY_MEASURED: %Inh (%)

MOLECULE	MEASURED
CCN1CCN(CCCC(=O)Nc2n[nH]c3nc(-c4ccc(O)cc4)c(Br)cc23)CC1	0
CCNCC(Cc1ccccc1)NC(=O)c1cc(Br)c(-c2ccnc3[nH]ccc23)s1.Cl.Cl (stereo not shown)	67
C[C@@H]1CNc2c(sc3ccc4nc(-c5ccncc5)ccc4c23)C(=O)N1	16
NC(=O)c1ccc(-c2cc3ncnc(SCC(=O)O)c3s2)cc1	13
O=C1NCCc2[nH]c(-c3ccncc3)cc21	1
O=C(Nc1ccc(Oc2ccc3nc(NC(=O)C4CC4)cn3n2)c(F)c1)c1cccn(-c2ccccc2)c1=O	10
Cl.Cl.NC[C@H](CC1CCCCC1)NC(=O)c1ccc(-c2ccnc3[nH]ccc23)s1	41

* * *

Tested on: YANK3
Construct: gene STK32C
RECORDED_CONDITIONS: concentration: 1 μM,replicates: in singlicate; n = 1
If the reported %Inh equals or exceeds 9%, assign yes. If not, assign no.

COMPOUND	ASSIGNED_CATEGORY
CC(C)c1nc(-c2cccc(NS(=O)(=O)c3ccccc3)c2)c(-c2ccnc(Nc3ccc4c(c3)CN(C)CC4)n2)s1 [GSK1649598]	yes
COc1cccc(CNC(=O)NC2CCN(c3ccnc(Nc4cc(OC)c(OC)c(OC)c4)n3)C2)c1 (stereo not shown) [GSK1379765]	no
CCn1c(-c2nonc2N)nc2cncc(CNC3CCNCC3)c21.Cl [SB-747651]	yes
Cc1ccc(C(=O)Nc2ccc(Oc3ccc4nc(NC(=O)C5CC5)cn4c3)c(F)c2)c(=O)n1-c1ccccc1	no
CCNCC(Cc1ccccc1)NC(=O)c1cc(Br)c(-c2ccnc3[nH]ccc23)s1.Cl.Cl (stereo not shown) [GSK1383280]	yes
COc1cc2ncn(-c3cc(OCC4CCCCC4)c(C(N)=O)s3)c2cc1OC [GSK204559]	no
NC(=O)Nc1sc(-c2ccc(F)cc2)cc1C(N)=O [GW789449]	no
CNC(=O)c1ccccc1Nc1nc(Nc2cccc(CS(C)(=O)=O)c2)ncc1C.O=CO [GSK1520489]	no
Cn1ccc2ncnc(Oc3ccc(NC(=O)Nc4cccc(C(F)(F)F)c4)c(Cl)c3)c21	yes

* * *

System: PHKG2
RECORDED_CONDITIONS: concentration: 1 μM,replicates: in singlicate; n = 1

COMPOUND	TESTED_ON	%Inh / %
Cn1ccc2ncnc(Oc3ccc(NC(=O)Nc4cncc(C(F)(F)F)c4)c(Cl)c3)c21	PHKG2	9
COc1cc2ncn(-c3cc(OCC4CCCCC4)c(C(N)=O)s3)c2cc1OC [GSK204559]	PHKG2	18
Cc1ccn2nc(-c3ccc(F)cc3)c(-c3ccncc3)c2c1.Cl [GW457859]	PHKG2	11
COc1cccc(C2=C(Nc3cccc(Cl)c3)C(=O)NC2=O)c1 [SB-341556]	PHKG2	0
C[C@@H](Oc1cc(-n2cnc3cc(-c4ccncc4)ccc32)sc1C(N)=O)c1ccccc1Cl [GSK479719]	PHKG2	16
COc1ccc(Nc2nccc(N3CCC(NC(=O)c4cccc(C#N)c4)C3)n2)cc1 (stereo not drawn) [GSK1379730]	PHKG2	0

* * *

Tested on: ERK2
Construct: gene MAPK1
RECORDED_CONDITIONS: concentration: 1 μM,replicates: in singlicate; n = 1

MOLECULE	TESTED_ON	%Inh / %
COc1cccc(C2=C(Nc3cccc(Cl)c3)C(=O)NC2=O)c1	ERK2	0
Cl.Nc1n[nH]c2cc(-c3ccccn3)ccc12	ERK2	0
Cn1ccc2ncnc(Oc3ccc(NC(=O)Nc4cncc(C(F)(F)F)c4)c(Cl)c3)c21	ERK2	0
O=C(Nc1ccc(Oc2ccc3nc(NC(=O)C4CC4)cn3n2)c(F)c1)c1cccn(-c2ccccc2)c1=O	ERK2	10
O=C(Nc1ccccc1)c1cccc(Oc2ccc3nccn3n2)c1	ERK2	0
Cc1cccc(-c2nc(Nc3ccncc3)c3sccc3n2)n1	ERK2	18
CS(=O)(=O)c1cccc(CNc2nc(Nc3ccc4c(c3)[C@@H]3C[C@@H]4CNC3=O)ncc2C(F)(F)F)c1	ERK2	44
O=c1[nH]cc(-c2ccc(O)cc2)c2sc(-c3ccncc3)cc12	ERK2	0
O=C(Nc1cccc(C(F)(F)F)c1)c1cccc(Oc2ccc3nccn3n2)c1	ERK2	7
Cc1cccc2c(-c3ccncc3)c(-c3ccc(F)cc3)nn12.Cl	ERK2	0
NC(=O)c1ccc(-c2cc3ncnc(SCC(=O)O)c3s2)cc1	ERK2	4
CSc1nccc(-c2c(-c3ccc(F)cc3)ncn2CCCN2CCOCC2)n1.Cl	ERK2	0
CN1CCN(CCNc2nc3cc(Oc4ccc(NC(=O)Nc5cc(C(F)(F)F)ccc5F)cc4)ccc3[nH]2)CC1.Cl.Cl	ERK2	0
CCCC(=O)Nc1n[nH]c2ncccc12	ERK2	0
CCN1CCN(CCCC(=O)Nc2n[nH]c3nc(-c4ccc(O)cc4)c(Br)cc23)CC1	ERK2	0
C[C@@H]1CNc2c(sc3ccc4nc(-c5ccc(O)cc5)ccc4c23)C(=O)N1	ERK2	16
O=C(Nc1cccc(Oc2ccc3nccn3n2)c1)Nc1cccc(C(F)(F)F)c1	ERK2	0
Cn1ccc2ncnc(Oc3ccc(NC(=O)Nc4cccc(C(F)(F)F)c4)c(Cl)c3)c21	ERK2	18
Cc1ccc(C(=O)Nc2ccc(Oc3ccc4nc(NC(=O)C5CC5)cn4c3)c(F)c2)c(=O)n1-c1ccccc1	ERK2	0
COC(=O)c1cccc(NC(=O)NC2CCN(c3ccnc(NCc4ccc(F)cc4)n3)CC2)c1	ERK2	14
CS(=O)c1ccc(-c2coc3ccc(-c4n[nH]c(=O)o4)cc23)cc1 (centres unmarked)	ERK2	1
Nc1nccc(-c2ccc3c(N)n[nH]c3c2)n1	ERK2	0
COc1ccc(Nc2nccc(N3CCC(NC(=O)c4cccc(C#N)c4)C3)n2)cc1 (centres unmarked)	ERK2	26

* * *

Catalogue of %Inh values
Test system: PIK3CG
RECORDED_CONDITIONS: concentration: 1 μM,replicates: in singlicate; n = 1
PROPERTY_MEASURED: %Inh

SMILES_REPR	MEASURED
Cc1cccc2c(-c3ccncc3)c(-c3ccc(F)cc3)nn12.Cl	0%
CC(C)S(=O)(=O)N1CCN(Cc2ccc3c(c2)nc(NC(=O)c2ccsc2)n3C[C@H](O)c2ccccc2)CC1	0%
O=C(Nc1cccc(C(F)(F)F)c1)c1cccc(Oc2ccc3nccn3n2)c1	94.2%
Cc1ccn2nc(-c3ccc(F)cc3)c(-c3ccncc3)c2c1.Cl	1%

* * *

System: MAPKAPK2
RECORDED_CONDITIONS: concentration: 1 μM,replicates: in singlicate; n = 1

SMILES_REPR	TESTED_ON	%Inh / %
COc1cccc(C2=C(Nc3cccc(Cl)c3)C(=O)NC2=O)c1	MAPKAPK2	20
CN1CCN(CCNc2nc3cc(Oc4ccc(NC(=O)Nc5cc(C(F)(F)F)ccc5F)cc4)ccc3[nH]2)CC1.Cl.Cl	MAPKAPK2	4
Cc1ccc(CC(=O)N2CCc3cc(-c4cn(C)c5ncnc(N)c45)ccc32)cc1	MAPKAPK2	6

* * *

System: IKK-beta
Construct: gene IKBKB
RECORDED_CONDITIONS: concentration: 1 μM,replicates: in singlicate; n = 1
If the reported %Inh equals or exceeds 9%, assign label 1. If not, assign label 0.

MOLECULE	TESTED_ON	ASSIGNED_CATEGORY
CC(=O)Nc1ccc(-c2cc3ncnc(SCC(=O)O)c3s2)cc1	IKK-beta	label 0
CS(=O)(=O)c1cccc(CNc2nc(Nc3ccc4c(c3)[C@@H]3C[C@@H]4CNC3=O)ncc2C(F)(F)F)c1	IKK-beta	label 0
CCNCC(Cc1ccccc1)NC(=O)c1cc(Br)c(-c2ccnc3[nH]ccc23)s1.Cl.Cl (stereo not shown)	IKK-beta	label 1
COc1cc2ncn(-c3cc(OCC4CCCCC4)c(C(N)=O)s3)c2cc1OC	IKK-beta	label 0
CCN1CCN(CCCC(=O)Nc2n[nH]c3nc(-c4ccc(O)cc4)c(Br)cc23)CC1	IKK-beta	label 0
O=c1[nH]cc(-c2ccc(O)cc2)c2sc(-c3ccncc3)cc12	IKK-beta	label 0
C[C@@H]1CNc2c(sc3ccc4nc(-c5ccc(O)cc5)ccc4c23)C(=O)N1	IKK-beta	label 1
Cc1ccn2nc(-c3ccc(F)cc3)c(-c3ccncc3)c2c1.Cl	IKK-beta	label 0
CN1CCN(CCCNc2nccc(-c3c(-c4ccc(F)cc4)nn4cc(C(N)=O)ccc34)n2)CC1	IKK-beta	label 0
Cl.c1ccc(Oc2ccc(Nc3ccnc4cc(-c5ccc(CN6CCNCC6)o5)ccc34)cc2)nc1	IKK-beta	label 0
Cn1cc(-c2cccc3c(N)c(C(N)=O)nnc23)cn1	IKK-beta	label 1
N#Cc1cccc(C(=O)NC2CCN(c3ccnc(Nc4ccc(F)cc4)n3)C2)c1 (stereo not shown)	IKK-beta	label 1
COC(=O)c1cccc(NC(=O)NC2CCN(c3ccnc(NCc4ccc(F)cc4)n3)CC2)c1	IKK-beta	label 0
CC(C)S(=O)(=O)N1CCN(Cc2ccc3c(c2)nc(NC(=O)c2ccsc2)n3C[C@H](O)c2ccccc2)CC1	IKK-beta	label 1
Cc1cccc2c(-c3ccncc3)c(-c3ccc(F)cc3)nn12.Cl	IKK-beta	label 0
CCn1c(-c2nonc2N)nc2cncc(Br)c21	IKK-beta	label 0
OCCn1cc(-c2cnc3nnn(Cc4ccc5ncccc5c4)c3n2)cn1	IKK-beta	label 0
Cn1ccc2ncnc(Oc3ccc(NC(=O)Nc4cncc(C(F)(F)F)c4)c(Cl)c3)c21	IKK-beta	label 0
CC(C(=O)NC1CCN(c2ccnc(Nc3ccc(F)cc3)n2)C1)c1ccc(Cl)cc1 (stereo not shown)	IKK-beta	label 0
CCn1c(-c2nonc2N)nc2cncc(CNC3CCNCC3)c21.Cl	IKK-beta	label 1
COc1ccc(Nc2nccc(N3CCC(NC(=O)c4cccc(C#N)c4)C3)n2)cc1 (stereo not shown)	IKK-beta	label 0
O=C(Nc1n[nH]c2cc(-c3ccco3)ccc12)C1CC1	IKK-beta	label 0
Cn1ccc2ncnc(Oc3ccc(NC(=O)Nc4cnn(C(C)(C)C)c4)c(Cl)c3)c21	IKK-beta	label 1
CNC(=O)c1ccccc1Nc1nc(Nc2cccc(CS(C)(=O)=O)c2)ncc1C.O=CO	IKK-beta	label 1
Cl.Nc1n[nH]c2cc(-c3ccccn3)ccc12	IKK-beta	label 0
C[C@@H](Oc1cc(-n2cnc3ccc(-c4ccncc4)cc32)sc1C(N)=O)c1ccccc1Cl	IKK-beta	label 1
Cc1ccc(CC(=O)N2CCc3cc(-c4cn(C)c5ncnc(N)c45)ccc32)cc1	IKK-beta	label 0
C[C@@H]1CNc2c(sc3ccc4nc(-c5ccncc5)ccc4c23)C(=O)N1	IKK-beta	label 0
O=C(Nc1cccc(C(F)(F)F)c1)c1cccc(Oc2ccc3nccn3n2)c1	IKK-beta	label 0
CS(=O)c1ccc(-c2coc3ccc(-c4n[nH]c(=O)o4)cc23)cc1 (stereo not shown)	IKK-beta	label 0
